experiment: Plasma levels of florfenicol / pharmacokinetic analysis in cattle after subcutaneous administration; type: in vivo; settings: bovine, sc, 40 mg/kg, FIG. 2, six cattle, subcutaneous florfenicol solution, 40 mg per kg of body weight, read-out: Mean peak concentration (Cmax)
OBSERVABLE: Cmax
Report field: quantity (unit follows the number).

Request the reported Cmax associated with CS(=O)(=O)c1ccc([C@@H](O)[C@@H](CF)NC(=O)C(Cl)Cl)cc1
4250 ng/mL
